# assayed.system: PICK1 WT without SNAP-tag (rat (Rattus norvegicus)), Q9EP80
# assay.text: fluorescence polarisation; competition: increasing unlabelled peptide, fixed 70% saturating PICK1 with OrG DAT C13; 50 mM Tris pH 7.4, 125 mM NaCl, 1 mM DTT, 0.01% Triton X-100; on ice; apparent Ki
property.label: Ki

Measured Ki, EVRQFTLRHWLKV (modifications not checked) [unlabeled peptide of the DAT C-terminus (competitor in fluorescence polarisation)] : 2.1 µM
